Data origin, for the record: paper PMC3973950

# Test system: BT474 (breast cancer cell line)
# test.method.notes: In vitro cytotoxicity by MTT assay, BT474
# Format: cell-based
# run.conditions: Homo sapiens, BT-474, 0.045 μM, 72 h, read-out: % cytotoxicity (100 − % cell survival) of BT474 cell line
Criterion: cytotoxicity at 0.045 µM strictly less than 30%. Met: Fulfilled. Not met: Not fulfilled.

Q: Consider the compound CC(=O)Nc1ccc(S(=O)(=O)Nc2nnc(S(=O)(=O)NC(=O)c3ccc(Cl)cc3)s2)cc1 [Compound 6g] . Is its cytotoxicity at 0.045 µM strictly less than 30%?
A: Not fulfilled

Q: Consider the compound O=C(NS(=O)(=O)c1nnc(N=Cc2ccc(Cl)cc2)s1)c1ccccc1 [Compound 9b] . Is its cytotoxicity at 0.045 µM strictly less than 30%?
A: Not fulfilled

Q: Consider the compound CC(=O)Nc1ccc(S(=O)(=O)Nc2nnc(S(=O)(=O)NC(=O)c3ccccc3O)s2)cc1 [Compound 6d] . Is its cytotoxicity at 0.045 µM strictly less than 30%?
A: Fulfilled

Q: Consider the compound CC(=O)Nc1ccc(S(=O)(=O)Nc2nnc(S(=O)(=O)NC(=O)c3ccccc3)s2)cc1 [Compound 6a] . Is its cytotoxicity at 0.045 µM strictly less than 30%?
A: Fulfilled

Q: Consider the compound CC(=O)Nc1ccc(S(=O)(=O)Nc2nnc(S(=O)(=O)NC(=O)c3ccc([N+](=O)[O-])cc3)s2)cc1 [Compound 6e] . Is its cytotoxicity at 0.045 µM strictly less than 30%?
A: Fulfilled

Q: Consider the compound Nc1ccc(S(=O)(=O)Nc2nnc(S(=O)(=O)NC(=O)c3ccc([N+](=O)[O-])cc3)s2)cc1 [Compound 7e] . Is its cytotoxicity at 0.045 µM strictly less than 30%?
A: Not fulfilled

Q: Consider the compound Nc1nnc(S(=O)(=O)NC(=O)c2ccccc2O)s1 [Compound 4d] . Is its cytotoxicity at 0.045 µM strictly less than 30%?
A: Fulfilled

Q: Consider the compound O=C(NS(=O)(=O)c1nnc(N=Cc2ccc(O)cc2)s1)c1ccccc1 [Compound 9e] . Is its cytotoxicity at 0.045 µM strictly less than 30%?
A: Fulfilled
